Substrate: CC(=O)Oc1ccc([N+](=O)[O-])cc1
Assay: purified protein
Type: biochemical, Dorea formicigenerans
Conditions: 10 mM Tris-HCl pH 8.4, 2.5% Triton X-100, 40 °C
reported.endpoint: kcat (s⁻¹)

INSERT INTO measurements (protein, test_value) VALUES
  ('DfFAE (Dorea formicigenerans) (protein, E. coli T7; trimeric by SEC (117 kDa)) MNQKKECMDVHVNGLKFHVQTFGSGVPIIMIMGLGAPGDKWKHNYELLSKWFWCIVPDNRGAGLSDKPEAESYTTEQMADDIIGIMDALDIKKAHVMGVSMGGAIAQQVALKVPDRVLSLILTSTFASVSPAFKKALNLICELKEDTDPAVLKQLNLWMTYGQYTQIHHPEKIEKSIEEDAAYPYPMPVYAYKAQCGACLSHNTAGRLHELKMPVLIAAGAKDLFMNIEKTMELVHGIPQAEFYLAPEGGHVHQWEYPEPYDSVVVGFLMKHTN', 4.42),
  ('DfFAE (Dorea formicigenerans; N156A) (protein, E. coli T7; trimeric by SEC (117 kDa)) MNQKKECMDVHVNGLKFHVQTFGSGVPIIMIMGLGAPGDKWKHNYELLSKWFWCIVPDNRGAGLSDKPEAESYTTEQMADDIIGIMDALDIKKAHVMGVSMGGAIAQQVALKVPDRVLSLILTSTFASVSPAFKKALNLICELKEDTDPAVLKQLALWMTYGQYTQIHHPEKIEKSIEEDAAYPYPMPVYAYKAQCGACLSHNTAGRLHELKMPVLIAAGAKDLFMNIEKTMELVHGIPQAEFYLAPEGGHVHQWEYPEPYDSVVVGFLMKHTN', 14.8),
  ('DfFAE (Dorea formicigenerans; P149A) (protein, E. coli T7; trimeric by SEC (117 kDa)) MNQKKECMDVHVNGLKFHVQTFGSGVPIIMIMGLGAPGDKWKHNYELLSKWFWCIVPDNRGAGLSDKPEAESYTTEQMADDIIGIMDALDIKKAHVMGVSMGGAIAQQVALKVPDRVLSLILTSTFASVSPAFKKALNLICELKEDTDAAVLKQLNLWMTYGQYTQIHHPEKIEKSIEEDAAYPYPMPVYAYKAQCGACLSHNTAGRLHELKMPVLIAAGAKDLFMNIEKTMELVHGIPQAEFYLAPEGGHVHQWEYPEPYDSVVVGFLMKHTN', 17.4);
